Target: T1, mouse programmed cell death protein 1 Fc fusion protein (mPD-1-Fc), mPD-1 C60S (aa 25-167) (Mus musculus, UniProt Q02242, stabilised)
T1 construct: not cleaved; source: Expi293F, purified (Protein A, SEC; dimeric fraction); not shown: Fc (human), C-terminal, kept
Experiment: SPR; Carterra LSA; Fab from the ammonium sulfate precipitate of the culture supernatant immobilised on a NiHC200M chip; hPD-1 (1-1024 nM) or mPD-1-Fc (4-1024 nM) as analyte, fourfold dilution series, no regeneration; HBS-EP pH 7.4, 25 °C; medians over the spots of a construct, KD = koff/kon
Settings: one partner purified
Below is a list of entries, each paired with its recorded Kd value.
Quick note: give the figure in nM, leave out the unit.

Answered examples (2):
[[record]]
binder = "toripalimab Fab L.V56Y (Fab, V domains shown, as the heavy chain of Sm3; light chain of Sm3 with this change; numbers count from the chain's first residue; source: Brevibacillus, culture supernatant (ammonium sulfate precipitate); not shown: 6xHis, C-terminal, kept; 6xHN, C-terminal, kept) VH: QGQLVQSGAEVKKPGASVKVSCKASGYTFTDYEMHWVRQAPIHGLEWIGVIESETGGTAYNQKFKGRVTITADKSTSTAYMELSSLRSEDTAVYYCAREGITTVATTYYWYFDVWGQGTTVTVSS VL: DVVMTQSPLSLPVTLGQPASISCRSSQSIVHSNGNTYLEWYLQKPGQSPQLLIYKYSNRFSGVPDRFSGSGSGTDFTLKISRVEAEDVGVYYCFQGSHVPLTFGQGTKLEIK"
meas_value = 290

[[record]]
binder = "toripalimab Fab L.V99P (Fab, V domains shown, as the heavy chain of Sm3; light chain of Sm3 with this change; numbers count from the chain's first residue; source: Brevibacillus, culture supernatant (ammonium sulfate precipitate); not shown: 6xHis, C-terminal, kept; 6xHN, C-terminal, kept) VH: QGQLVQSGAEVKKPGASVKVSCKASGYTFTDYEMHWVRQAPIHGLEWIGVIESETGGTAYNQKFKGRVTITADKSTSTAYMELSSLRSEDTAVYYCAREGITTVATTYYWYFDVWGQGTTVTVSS VL: DVVMTQSPLSLPVTLGQPASISCRSSQSIVHSNGNTYLEWYLQKPGQSPQLLIYKVSNRFSGVPDRFSGSGSGTDFTLKISRVEAEDVGVYYCFQGSHPPLTFGQGTKLEIK"
meas_value = 24.7


q: Which Kd value is on record for toripalimab Fab L.P100A (Fab, V domains shown, as the heavy chain of Sm3; light chain of Sm3 with this change; numbers count from the chain's first residue; source: Brevibacillus, culture supernatant (ammonium sulfate precipitate); not shown: 6xHis, C-terminal, kept; 6xHN, C-terminal, kept) VH: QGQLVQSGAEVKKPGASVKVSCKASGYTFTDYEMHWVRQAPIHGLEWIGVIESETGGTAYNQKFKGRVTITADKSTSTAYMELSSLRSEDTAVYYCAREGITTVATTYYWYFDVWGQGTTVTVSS VL: DVVMTQSPLSLPVTLGQPASISCRSSQSIVHSNGNTYLEWYLQKPGQSPQLLIYKVSNRFSGVPDRFSGSGSGTDFTLKISRVEAEDVGVYYCFQGSHVALTFGQGTKLEIK ?
a: 89.8

q: Which Kd value is on record for toripalimab Fab L.R59A (Fab, V domains shown, as the heavy chain of Sm3; light chain of Sm3 with this change; numbers count from the chain's first residue; source: Brevibacillus, culture supernatant (ammonium sulfate precipitate); not shown: 6xHis, C-terminal, kept; 6xHN, C-terminal, kept) VH: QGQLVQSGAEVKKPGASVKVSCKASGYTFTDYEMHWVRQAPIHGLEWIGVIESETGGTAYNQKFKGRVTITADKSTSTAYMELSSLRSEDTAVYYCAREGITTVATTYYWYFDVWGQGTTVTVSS VL: DVVMTQSPLSLPVTLGQPASISCRSSQSIVHSNGNTYLEWYLQKPGQSPQLLIYKVSNAFSGVPDRFSGSGSGTDFTLKISRVEAEDVGVYYCFQGSHVPLTFGQGTKLEIK ?
a: 130

q: Which Kd value is on record for toripalimab Fab L.L101M (Fab, V domains shown, as the heavy chain of Sm3; light chain of Sm3 with this change; numbers count from the chain's first residue; source: Brevibacillus, culture supernatant (ammonium sulfate precipitate); not shown: 6xHis, C-terminal, kept; 6xHN, C-terminal, kept) VH: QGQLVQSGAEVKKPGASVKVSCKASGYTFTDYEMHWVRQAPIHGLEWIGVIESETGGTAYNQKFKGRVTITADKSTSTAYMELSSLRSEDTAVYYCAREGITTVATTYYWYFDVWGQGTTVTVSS VL: DVVMTQSPLSLPVTLGQPASISCRSSQSIVHSNGNTYLEWYLQKPGQSPQLLIYKVSNRFSGVPDRFSGSGSGTDFTLKISRVEAEDVGVYYCFQGSHVPMTFGQGTKLEIK ?
a: 24.5
